Experimental protocol: in vivo
Condition notes: male, Sprague-Dawley, rat, plasma, po, 150 mg/kg
Property: Cmax (µg/mL)
Field format: number, assumed µg/mL, no unit text.

Give its Cmax value. Item: C[C@H]1[C@H](OC(=O)CCC(=O)O)O[C@@H]2O[C@@]3(C)CC[C@H]4[C@H](C)CC[C@@H]1[C@@]24OO3 [Native Artesunate, artesunate]
0.701

* * *

Experimental protocol: in vivo
Condition notes: male, Sprague-Dawley, rat, plasma, po, 150 mg/kg
Property: half-life (min)
Field format: number, assumed min, no unit text.

Give its half-life value. Item: C[C@H]1[C@H](OC(=O)CCC(=O)O)O[C@@H]2O[C@@]3(C)CC[C@H]4[C@H](C)CC[C@@H]1[C@@]24OO3 [Native Artesunate, artesunate]
18

* * *

Experimental protocol: in vivo
Condition notes: male, Sprague-Dawley, rat, plasma, po, 150 mg/kg
Property: Tmax (min)
Field format: number, assumed min, no unit text.

Give its Tmax value. Item: C[C@H]1[C@H](OC(=O)CCC(=O)O)O[C@@H]2O[C@@]3(C)CC[C@H]4[C@H](C)CC[C@@H]1[C@@]24OO3 [Native Artesunate, artesunate]
15
